Tested on: Bemisia tabaci
Test: Insecticidal activity against Bemisia tabaci (sweet potato whitefly) susceptible Lab-PK assessed as mortality measured after 18 to 20 days
Format: functional
PARAMETER_MEASURED: LC50 (ugAi/ml)

# COMPOUND, TESTED_SYSTEM, UNIT_STRING, VALUE_REPORTED
data = [
    ("C/C(=N\\C#N)N(C)Cc1ccc(Cl)nc1", "Bemisia tabaci", "ugAi/ml", 0.39),
    ("CC(COc1ccc(Oc2ccccc2)cc1)Oc1ccccn1 (stereo not given)", "Bemisia tabaci", "ugAi/ml", 0.6),
    ("O=[N+]([O-])/N=C1\\NCCN1Cc1ccc(Cl)nc1", "Bemisia tabaci", "ugAi/ml", 0.09),
    ("CCOC(=O)OC1=C(c2cc(C)ccc2C)C(=O)N[C@]12CC[C@@H](OC)CC2", "Bemisia tabaci", "ugAi/ml", 0.17),
    ("CC(C)N1C(=O)N(c2ccccc2)CS/C1=N\\C(C)(C)C", "Bemisia tabaci", "ugAi/ml", 0.2),
]
